System: CCRF-CEM leukemia
experiment description: NCI-60 one-dose screen, 48 h (100 = growth as untreated, 0 = no growth, -100 = all killed)
reported conditions: 10 µM unless noted
The panel holds about 83,000 compounds, 20% with a hit somewhere; the sample as a whole holds those more often.
Could you mark each record class 1 if its growth falls strictly under 30%, and class 0 if it equals or exceeds it?

Use the examples below as a reference point.
> print(dat)
                                   compound  category
1               Cc1cccc(C)c1NC(=O)Nc1ccccc1   class 0
2  COc1ccc(S(=O)(=O)Oc2ccc(-c3sc4cc(OS(=O)(=O)c5ccc(OC)cc5)ccc4c3C(=O)c3ccc(OCCN4CCCCC4)cc3)cc2)cc1   class 0
3  O=C1OCC2=C1C(c1cccc(F)c1)c1cc3c(cc1N2CCO)CCC3 (stereo not drawn)   class 1
4  Cc1ccc(-c2nnc(SCc3nc(N)nc(Nc4ccccc4F)n3)n2-c2ccccc2)cc1   class 0
5  C=C(C)[C@@H]1CC[C@]2(C(=O)NC(C)=O)CC[C@]3(C)[C@H](CC[C@@H]4[C@@]5(C)CCCNC(C)(C)[C@@H]5CC[C@]43C)[C@@H]12   class 1
6           O=C(Oc1ccccc1)c1cc(O)c(O)c(O)c1   class 1

Q) # check: growth < 30% for [2H]C([2H])([2H])Oc1ccc(/C=C/C(=O)/C=C(O)/C=C/c2ccc(OC([2H])([2H])[2H])c(OC([2H])([2H])[2H])c2)cc1OC([2H])([2H])[2H]
A) class 1

Q) Here is the next compound: N=C(N)c1ccc(-c2ccc(-c3ccc(Cl)cc3Cl)s2)nc1
A) class 0
